Target: recombinant human γ-carboxylase (Homo sapiens, UniProt P38435)
Sequence (P38435 1-758): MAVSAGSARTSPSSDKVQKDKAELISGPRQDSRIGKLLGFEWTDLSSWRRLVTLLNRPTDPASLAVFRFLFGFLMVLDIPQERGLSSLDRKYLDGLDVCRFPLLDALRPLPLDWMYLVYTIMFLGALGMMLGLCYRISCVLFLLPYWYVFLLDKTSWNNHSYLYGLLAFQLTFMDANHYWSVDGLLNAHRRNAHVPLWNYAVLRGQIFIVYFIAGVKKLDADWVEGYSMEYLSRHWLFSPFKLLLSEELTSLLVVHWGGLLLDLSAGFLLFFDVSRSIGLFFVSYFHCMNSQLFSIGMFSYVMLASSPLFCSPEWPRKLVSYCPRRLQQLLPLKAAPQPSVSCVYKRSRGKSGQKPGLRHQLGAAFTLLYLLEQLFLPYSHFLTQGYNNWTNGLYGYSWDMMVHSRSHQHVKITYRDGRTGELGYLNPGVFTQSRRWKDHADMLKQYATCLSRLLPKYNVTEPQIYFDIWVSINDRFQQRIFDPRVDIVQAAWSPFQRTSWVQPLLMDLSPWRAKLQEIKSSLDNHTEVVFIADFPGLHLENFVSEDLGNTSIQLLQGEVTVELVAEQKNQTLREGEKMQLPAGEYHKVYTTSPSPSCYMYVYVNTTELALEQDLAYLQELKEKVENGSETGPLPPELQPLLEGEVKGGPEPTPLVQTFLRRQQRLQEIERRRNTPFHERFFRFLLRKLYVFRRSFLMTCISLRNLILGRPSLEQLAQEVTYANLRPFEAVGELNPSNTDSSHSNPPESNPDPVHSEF
Assay: Inhibition of recombinant human gamma-carboxylase (14CO2 incorporation, microsomes from High Five cells)
Conditions: in the presence of 220 μM vitamin K1 hydroquinone; compounds reduced to hydroquinone forms; n=1; read-out: IC50 against 220 μM vitamin K1
Protocol: The compounds to be tested were reduced to their hydroquinone forms by the addition of 0.2 M DTT to a solution of the compounds in DMSO (giving a final v/v ratio of 1:3 DTT:DMSO) and overnight incubation in a water bath (37° C.). In this assay a different microsomal preparation was used than the one described above. This microsomal preparation consists of microsomes prepared from Trichoplusia ni High Five cells that had had the cDNA for the human γ-carboxylase incorporated into their DNA. […]
pIC50: −log10 of the molar value.
metricName: pIC50

Check out these entries, answers already filled in.
compound | pIC50
CC1=CC(=O)c2ccccc2C1=O [Vitamin K3 (III), menadione, reference compound] | 3.34
COC(=O)CC/C(C)=C/CC1=C(C)C(=O)C(OC)=C(OC)C1=O | 3.27
CC1=C(C/C=C(\C)C(=O)O)C(=O)c2ccccc2C1=O | 3.47
COC(=O)C(C)CCC1=C(C)C(=O)c2ccccc2C1=O (stereo not drawn) | 3.29

1: CC1=C(C/C=C(\C)CCC(=O)O)C(=O)c2ccccc2C1=O [NaQuinate (VIII)]
2: COC(=O)CCC(C)=CCC1=C(C)C(=O)c2ccccc2C1=O [NaQuinate-Me (VII)]
Problem: Compare 1 and 2 by numeric pIC50 and name the larger one. Returns: label corresponding to the selected item.
Result: 1
